# Tested on: guinea pig ileum
# Assay Notes: In vitro anticholinergic activity in the isolated guinea pig ileum (field stimulation)
# Format: cell-based, male Hartley guinea pigs
# Test Settings: Cavia porcellus; at 4 mg/L; field stimulation 100-150 V, 10 msec, 0.2 Hz; read-out: Anticholinergic Inhibition of Guinea Pig Ileum
Measured Attribute: inhibition at 4 µg/mL (%)
Quick reminder: number only, in %, skip the unit.

## Input Give the measured inhibition at 4 µg/mL of Oc1c(CN2CCCC2)cc(Nc2ccnc3cc(C(F)(F)F)ccc23)cc1CN1CCCC1 .
## Output 36

## Input Give the measured inhibition at 4 µg/mL of Oc1c(CN2CCCC2)cc(Nc2ccnc3ccccc23)cc1CN1CCCC1 .
## Output 19

## Input Give the measured inhibition at 4 µg/mL of Oc1c(CN2CCCC2)cc(Nc2ncccn2)cc1CN1CCCC1 .
## Output 6

## Input Give the measured inhibition at 4 µg/mL of COc1nnc(Nc2cc(CN3CCCC3)c(O)c(CN3CCCC3)c2)c2ccccc12 .
## Output 84

## Input Give the measured inhibition at 4 µg/mL of Oc1c(CN2CCCC2)cc(Nc2nnc(Cl)c3ccccc23)cc1CN1CCCC1 .
## Output 76

## Input Give the measured inhibition at 4 µg/mL of Oc1c(CN2CCCC2)cc(Nc2ccc(Cl)nn2)cc1CN1CCCC1 .
## Output 40

## Input Give the measured inhibition at 4 µg/mL of Nc1cc(CN2CCCC2)c(O)c(CN2CCCC2)c1 .
## Output 3

## Input Give the measured inhibition at 4 µg/mL of Oc1c(CN2CCCC2)cc(Nc2ccc3ccccc3n2)cc1CN1CCCC1 .
## Output 50

## Input Give the measured inhibition at 4 µg/mL of Oc1ccc(Nc2ccc3ccccc3n2)cc1CN1CCCC1 .
## Output 72

## Input Give the measured inhibition at 4 µg/mL of Oc1ccc(Nc2nncc3ccccc23)cc1 [Example III, 1-(4'-hydroxyanilino)phthalazine] .
## Output 23

## Input Give the measured inhibition at 4 µg/mL of Oc1c(CN2CCCC2)cc(Nc2nncc3ccccc23)cc1CN1CCCC1 .
## Output 83

## Input Give the measured inhibition at 4 µg/mL of Oc1ccc(Nc2nnc(Cl)c3ccccc23)cc1CN1CCCC1 .
## Output 65

## Input Give the measured inhibition at 4 µg/mL of Oc1c(CN2CCCC2)cc(Nc2ccnc3cc(Cl)ccc23)cc1CN1CCCC1 .
## Output 27

## Input Give the measured inhibition at 4 µg/mL of C=C[C@H]1C[N@@]2CC[C@H]1C[C@@H]2[C@@H](O)c1ccnc2ccc(OC)cc12 (stereo in doubt) .
## Output 62

## Input Give the measured inhibition at 4 µg/mL of Oc1ccc(Nc2ncnc3ccccc23)cc1 [Example II, 4-(4'-hydroxyanilino)-quinazoline] .
## Output 13

## Input Give the measured inhibition at 4 µg/mL of Oc1c(CN2CCCC2)cc(CNc2nnc(Cl)c3ccccc23)cc1CN1CCCC1 .
## Output 78
